assay: NCI Yeast Anticancer Drug Screen. Data for the bub3 strain (AID 167); settings: S. cerevisiae bub3 mutant strain, at 50.0 µM (retest, dose inferred, filed as 5.0), hits give high values
Compounds without any hit were thinned out: in the full panel of roughly 79,000, 15% have a hit.
Rule: growth inhibition under 20% gives 0, otherwise 1.

Consider the worked cases shown below.
| molecule | cat |
| --- | --- |
| CCCC/C(=N/Nc1ccc([N+](=O)[O-])cc1)C(=O)O | 1 |
| CSc1ccc(/C=C2\CN(C)C/C(=C\c3ccc(SC)cc3)C2=O)cc1 | 1 |

// query Determine whether this molecule has growth inhibition no lower than 20%: NCCNCCNCc1c2ccccc2c(CNCCNCCN)c2ccccc12
// result 0

// query Determine whether this molecule has growth inhibition no lower than 20%: CCN(CC)C(=O)C(C)OC(C)=O (stereo not given)
// result 0

// query Determine whether this molecule has growth inhibition no lower than 20%: COc1ccccc1NC(=O)c1ccccc1F
// result 0

// query Determine whether this molecule has growth inhibition no lower than 20%: Oc1ccc(Cl)cc1Cc1cc(Cl)cc(Cc2cc(Cl)ccc2O)c1O
// result 1

// query Determine whether this molecule has growth inhibition no lower than 20%: CC(=O)Oc1c(Br)ccc2cc(C(Br)Br)c(C(=O)c3ccccc3)nc12
// result 1

// query Determine whether this molecule has growth inhibition no lower than 20%: O=S(=O)(ON=C1C=CC(=NOS(=O)(=O)c2ccccc2)C=C1)c1ccccc1
// result 1

// query Determine whether this molecule has growth inhibition no lower than 20%: CNC(=O)NC(c1cc(OC)c(OC)c(OC)c1)c1cc2c(cc1O)OCO2 (stereo not given)
// result 0

// query Determine whether this molecule has growth inhibition no lower than 20%: OC(Cn1cncn1)(Cn1cncn1)c1ccc(Cl)cc1Cl
// result 1

// query Determine whether this molecule has growth inhibition no lower than 20%: CCn1nc(-c2ccccc2)c2c1N(C)c1ccccc1-n1c(-c3ccccc3)nnc1-2
// result 1

// query Determine whether this molecule has growth inhibition no lower than 20%: CC(=O)c1sc(Nc2ccc(Cl)c(Cl)c2)nc1C
// result 1

// query Determine whether this molecule has growth inhibition no lower than 20%: CC(NNC(=S)N1CCCCCC1)c1cccnn1 (stereo not given)
// result 1

---

test: NCI Yeast Anticancer Drug Screen. Data for the bub3 strain (AID 167); details: S. cerevisiae bub3 mutant strain, at 50.0 µM, hits give high values
About 79,000 compounds went through this panel and 15% of them were active in at least one assay; those are over-represented in the sample as a whole.
We begin with a simple list: items and their reported growth inhibition.
Please respond with the number in % and leave the unit unwritten.

| compound | unitSymbol | growth inhibition |
| --- | --- | --- |
| COc1cccc2c1C(=O)c1c(O)c3c(c(O)c1C2=O)C[C@@](O)(C(=O)CO)C[C@@H]3OC1CC(N)CC(C)O1 (some centres not stated) | % | 88.9 |
| O=C(O)CSc1cc2c3ccccc3sc2c2ccccc12 | % | 79.7 |
| O=C(CC(c1ccccc1)N1CCCCC1)OC1c2ccccc2-c2ccccc21 (configuration not stated) | % | 70 |
| O=[N+]([O-])c1ccc(O)c(C2CCCCC2)c1 | % | 100 |
| O=C(O)c1ccc2c(O)c3ccccc3c(O)c2c1 | % | 99.5 |

// query State, in one line, measured growth inhibition of CCCCCCCC[N+](C)(CCCCCCCC)CCCCCCCC
// result 91.7

// query State, in one line, measured growth inhibition of CN=S(=O)(OCCCCCCCCCOS(=O)(=NC)c1ccc(C)cc1)c1ccc(C)cc1 (configuration not stated)
// result -35.3

// query State, in one line, measured growth inhibition of Oc1ccc(Cl)cc1Cc1cc(Cl)cc(Cc2cc(Cl)ccc2O)c1O
// result 96.7
